- SYSTEM_UNDER_TEST: human FPR2 (Homo sapiens)
- Sequence (P25090 1-351): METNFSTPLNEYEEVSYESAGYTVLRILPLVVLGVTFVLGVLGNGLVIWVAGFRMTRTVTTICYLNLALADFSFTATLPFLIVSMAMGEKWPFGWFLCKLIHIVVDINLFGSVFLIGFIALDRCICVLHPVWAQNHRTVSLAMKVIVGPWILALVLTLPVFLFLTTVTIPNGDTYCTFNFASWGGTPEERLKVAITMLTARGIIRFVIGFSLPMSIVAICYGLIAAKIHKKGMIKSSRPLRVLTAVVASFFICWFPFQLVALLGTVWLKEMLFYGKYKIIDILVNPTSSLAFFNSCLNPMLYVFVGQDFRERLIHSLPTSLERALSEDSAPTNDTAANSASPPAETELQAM
- ASSAY_INFO: FPR2 cyclic adenosine monophosphate (cAMP) assay
- CONDITION_LABEL: CHO cells overexpressing human FPR2; forskolin 5 μM; inhibition of cAMP production; HTRF; read-out: hFPR2 cAMP2 EC50
Measured EC50 values are reported for all entries that follow.
The response must be a number in nM with no trailing unit.

# COMPOUND, RESULT_UNIT, EC50
records = [
    ("COC(=O)[C@@H]1CCCN1c1ccc(C(F)(F)F)c(-n2c(=O)c(NC(=O)c3ccc(OC(F)F)cc3)c(-c3c(F)cc(OC)cc3F)n2C)n1", "nM", 10),
    ("COc1cc(F)c(-c2c(NC(=O)c3ccc(OC(F)F)cc3)c(=O)n(-c3cccc(Cl)c3Cl)n2C)c(F)c1", "nM", 4),
    ("COc1cc(F)c(-c2c(NC(=O)c3ccc(OC(F)F)cc3)c(=O)n(-c3nc(NC4COC4)ccc3C(F)(F)F)n2C)c(F)c1", "nM", 5),
    ("COc1cc(F)c(-c2c(NC(=O)c3ccc(OC(F)F)cc3)c(=O)n(-c3nc(N[C@@H](C)CO)ccc3C(F)(F)F)n2C)c(F)c1", "nM", 1),
    ("COc1cc(F)c(-c2c(NC(=O)c3ccc(OC(F)F)cc3)c(=O)n(-c3nc(NCC(C)(C)O)ccc3C(F)(F)F)n2C)c(F)c1", "nM", 3),
    ("COc1cc(F)c(-c2c(NC(=O)c3ccc(OC(F)F)cc3)c(=O)n(-c3nc(Cl)ccc3C(F)(F)F)n2C)c(F)c1", "nM", 5),
]

Q: # query: EC50 of entry COc1ccc(-c2c(NC(=O)c3ccc(OC(F)F)cc3)c(=O)n(-c3ncccc3C(F)(F)F)n2C)cc1C
A: 315

Q: # query: EC50 of entry COc1cc(F)c(-c2c(NC(=O)c3ccc(OC(F)F)cc3)c(=O)n(-c3cccc(CO)n3)n2C)c(F)c1
A: 17

Q: # query: EC50 of entry CCOc1cccc(-n2c(=O)c(NC(=O)c3ccc(OC(F)F)cc3)c(-c3c(F)cc(OC)cc3F)n2C)c1
A: 6

Q: # query: EC50 of entry COc1cc(F)c(-c2c(NC(=O)c3ccc(OC(F)F)cc3)c(=O)n(-c3nc(OCC(C)(C)O)ccc3C(F)(F)F)n2C)c(F)c1
A: 1

Q: # query: EC50 of entry COc1cc(NCCO)nc(-n2c(=O)c(NC(=O)c3ccc(OC(F)F)cc3)c(-c3c(F)cc(OC)cc3F)n2C)c1
A: 6

Q: # query: EC50 of entry COc1cc(F)c(-c2c(NC(=O)c3ccc(OC(F)F)cc3)c(=O)n(-c3cc(C)cc(OC4CCOC4)n3)n2C)c(F)c1 (stereo not shown) [Example 359]
A: 5

Q: # query: EC50 of entry COc1cc(F)c(-c2c(NC(=O)c3ccc(OC(F)(F)F)cc3)c(=O)n(-c3ncccc3F)n2C)c(F)c1
A: 8
